Origin of measurements: patent US12084419B2

# TESTED TARGET: His6 tagged human recombinant FABP4 (Homo sapiens)
# Construct: purchased Cayman Chemicals 10009549
# Sequence (P15090 whole entry): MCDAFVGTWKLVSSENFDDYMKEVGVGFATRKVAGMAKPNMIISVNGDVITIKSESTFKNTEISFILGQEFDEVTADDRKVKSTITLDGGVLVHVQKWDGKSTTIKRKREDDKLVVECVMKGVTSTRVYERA
# METHOD SUMMARY: FABP4 TR-FRET assay: displacement of BODIPY FL C12 fatty acid
# PROTOCOL CONDITIONS: 1 μM compound, triplicates, inhibition of BODIPY FL C12 binding
REPORTED ENDPOINT: inhibition at 1 µM (%)
Quick reminder: number only, in %, skip the unit.

Incoming: Endpoint output: inhibition at 1 µM of CCCCCCC1CCCc2c(n(Cc3cncc(C#N)c3)c3c(C(=O)O)cccc23)C1 (stereo not shown) . Value?
Outgoing: 90.5

Incoming: Endpoint output: inhibition at 1 µM of CCC1CCCCc2c1c1cccc(C(=O)O)c1n2Cc1cccc(C(N)=O)c1 (stereo not shown) . Value?
Outgoing: 86.4

Incoming: Endpoint output: inhibition at 1 µM of CCCCC1CCCCc2c1c1cccc(C(=O)O)c1n2Cc1cccc(C(N)=O)c1 (stereo not shown) . Value?
Outgoing: 63.3

Incoming: Endpoint output: inhibition at 1 µM of CCCC1CCc2c(c3cccc(C(=O)O)c3n2Cc2cccc(C(N)=O)c2)C1 (stereo not shown) . Value?
Outgoing: 87.3

Incoming: Endpoint output: inhibition at 1 µM of CCCCCC1CCCCc2c1c1cccc(C(=O)O)c1n2Cc1cccc(C#N)c1 (stereo not shown) . Value?
Outgoing: 44.3

Incoming: Endpoint output: inhibition at 1 µM of CCCCC1CCCc2c(n(Cc3cccc(C#N)c3)c3c(C(=O)NCC(=O)O)cccc23)C1 (stereo not shown) . Value?
Outgoing: 8.61

Incoming: Endpoint output: inhibition at 1 µM of CCCCCCC1CCc2c(n(Cc3cccc(C(=O)O)c3)c3c(C(=O)O)cccc23)C1 (stereo not shown) . Value?
Outgoing: 23.9

Incoming: Endpoint output: inhibition at 1 µM of CCCCCC1CCCc2c(n(Cc3cccc(C(N)=O)c3)c3c(C(=O)O)cccc23)C1 (stereo not shown) . Value?
Outgoing: 91.2

Incoming: Endpoint output: inhibition at 1 µM of CCCCC1CCCc2c(n(Cc3ccc(C)cc3)c3c(C(=O)O)cccc23)C1 (stereo not shown) . Value?
Outgoing: 106

Incoming: Endpoint output: inhibition at 1 µM of CCCCCCC1CCCc2c(n(Cc3ccccc3C(N)=O)c3c(C(=O)O)cccc23)C1 (stereo not shown) . Value?
Outgoing: 79.2
